Values compiled from patent US20230168249A1.

# TARGET OR TEST SYSTEM: T1, HCoV-HKU1-N protein (HCoV-HKU1, UniProt Q5MQC6 1-441)
# T1 construct: also called HKU1-CoV N
# T1 chain: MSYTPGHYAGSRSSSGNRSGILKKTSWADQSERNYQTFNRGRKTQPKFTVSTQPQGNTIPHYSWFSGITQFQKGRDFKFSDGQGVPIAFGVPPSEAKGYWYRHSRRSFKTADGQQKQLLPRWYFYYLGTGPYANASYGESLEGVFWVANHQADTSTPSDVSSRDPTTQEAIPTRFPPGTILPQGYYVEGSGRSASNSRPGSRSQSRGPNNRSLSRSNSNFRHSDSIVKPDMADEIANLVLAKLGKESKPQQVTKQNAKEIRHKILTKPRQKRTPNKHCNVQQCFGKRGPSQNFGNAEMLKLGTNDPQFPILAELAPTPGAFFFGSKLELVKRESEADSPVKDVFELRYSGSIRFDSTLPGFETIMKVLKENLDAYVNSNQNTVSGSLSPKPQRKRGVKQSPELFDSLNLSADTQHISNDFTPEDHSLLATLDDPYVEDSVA
# ASSAY: ELISA, IgG1 on recombinant N protein

BINDER	EC50
antibody #36 (antibody, V domains shown, also called IgG1#36; D36) VH: EVQLVESGGGLVQPGGSLRLSCAASGFTINRYSIHWVRQAPGKGLEWVAGIWPFGGDTTYADSVKGRFTISADTSKNTAYLQMNSLRAEDTAVYYCARGATSHDYWGQGTLVTVSS VL: DIQMTQSPSSLSASVGDRVTITCRASQDVTTTVAWYQQKPGKAPKLLINKGSWLYSGVPSRFSGSGSGTDFTLTISSLQPEDFATYYCQQYNKWPLTFGQGTKVEIKR	> 2 µg/mL
